Where do these numbers come from? They come from ChEMBL document CHEMBL1144768.

biological target: Carbonic anhydrase 2 (Homo sapiens)
quantity: pKi
Give bare numbers, as −log10 of the molar value.

Incoming: Suppose we examine the compound "CC1(C)O[C@H]2[C@@H]3OCO[C@@H]3CO[C@@]2(CNS(N)(=O)=O)O1" ; what pKi value has been reported?
Outgoing: 3.52

---

molecular target: Carbonic anhydrase 2 (Homo sapiens)
quantity: Kd

Incoming: Suppose we examine the compound "CC1(C)O[C@H]2[C@@H]3OCO[C@@H]3CO[C@@]2(CNS(N)(=O)=O)O1" ; what Kd value has been reported?
Outgoing: > 57 µM
